# Test system: Candida tropicalis
# protocolSummary: Antifungal activity against Candida tropicalis ATCC 750 by broth dilution method
# Assay type: functional
valueKind: MIC50 (µg/mL)
Respond numerically; units are µg/mL and should not be typed.

Field: example entries. Status: answers known.
[
  {
    "compound": "O=C1NC(=S)S/C1=C\\c1ccc(OCC(O)(Cn2cncn2)c2ccc(F)cc2F)cc1 (racemic)",
    "MIC50 / µg/mL": 8
  },
  {
    "compound": "O=C(O)Cc1ccc(OCC(O)(Cn2cncn2)c2ccc(F)cc2F)cc1 (racemic)",
    "MIC50 / µg/mL": 64
  },
  {
    "compound": "CC1OC(=O)C(c2ccc(OCC(O)(Cn3cncn3)c3ccc(F)cc3F)cc2)=C1c1ccc(F)cc1F (racemic)",
    "MIC50 / µg/mL": 8
  },
  {
    "compound": "OC(Cn1cncn1)(Cn1cncn1)c1ccc(F)cc1F [FLUCONAZOLE]",
    "MIC50 / µg/mL": 1
  }
]

Note: attention shifts to another entry.
Briefly, MIC50 measured for COc1cc(C2=C(c3ccc(Br)cc3)COC2=O)ccc1OCC(O)(Cn1cncn1)c1ccc(F)cc1F (racemic) : 4

FYI, the data here is from ChEMBL document CHEMBL1817568.
